target: HLA-A*02:50; test: IEDB peptide-MHC binding, purified MHC/competitive/fluorescence; filed as Kd, often an IC50 or EC50 that approximates it; bounds were set here for any values at or beyond the usual limits of such assays; settings: source organism: Mycobacterium tuberculosis
MEASURE: pKd
Numbers only, as −log10 of the molar value.

For the sequence shown here, LLLRPFWPA , give the reported pKd. 8.04

====

biological target: HLA-B*18:01; test: IEDB peptide-MHC binding, purified MHC/competitive/radioactivity; filed as Kd, often an IC50 or EC50 that approximates it; bounds were set here for any values at or beyond the usual limits of such assays; settings: source organism: SARS coronavirus Tor2
pKd: −log10 of the molar value.
Record Y whenever pKd is at 6 or higher; record N when lower.

These solved cases illustrate the format of a correct answer.
BIOSEQUENCE | LABEL_VALUE
SAFFGMSRIG | N
QELGKYEQYI | N
NELTLIDFYL | Y

Given KEFTRPLISG , state whether its pKd is at least 6. N

Given DEWSVATFY , state whether its pKd is at least 6. Y

Given QELGHEDLMA , state whether its pKd is at least 6. N

Given SEEVVENPTI , state whether its pKd is at least 6. N

Given VDYGVRFFFY , state whether its pKd is at least 6. N

Given GEILLLEWL , state whether its pKd is at least 6. N

Given REIGFIVPGL , state whether its pKd is at least 6. N

Given GECPKFVFPL , state whether its pKd is at least 6. N

====

target: HLA-A*26:03; assay: IEDB peptide-MHC binding, purified MHC/direct/fluorescence; filed as Kd, often an IC50 or EC50 that approximates it; bounds were set here for any values at or beyond the usual limits of such assays; conditions: source organism: Variola virus
pKd: −log10 of the molar value.
Kindly supply the reported pKd values for the records listed here.

BIOSEQUENCE | OBSERVED
IHSDQLSKF | ≤ 4.70

Query pKd on HLA-A*26:03 for NRLKPRDFK ≤ 4.70

====

biological target: HLA-B*18:01; experiment: IEDB peptide-MHC binding, purified MHC/competitive/radioactivity; filed as Kd, often an IC50 or EC50 that approximates it; bounds were set here for any values at or beyond the usual limits of such assays; details: source organism: Mammarenavirus brazilense
MEASURE: Kd

For the sequence shown here, IDPLIVSTS , give the reported Kd. ≥ 77.5 µM

====

biological target: HLA-A*29:02; test: IEDB peptide-MHC binding, purified MHC/competitive/fluorescence; filed as Kd, often an IC50 or EC50 that approximates it; bounds were set here for any values at or beyond the usual limits of such assays; settings: source organism: Rickettsia bellii RML369-C
MEASURE: pKd
One number for each entry, as −log10 of the molar value.

For the sequence shown here, FTIGNMFSL , give the reported pKd. 6.13

====

target: HLA-B*40:01; test: IEDB peptide-MHC binding, purified MHC/direct/fluorescence; filed as Kd, often an IC50 or EC50 that approximates it; bounds were set here for any values at or beyond the usual limits of such assays; conditions: source organism: Coxiella burnetii
MEASURE: Kd

For the sequence shown here, KGPDKLQVY , give the reported Kd. ≥ 20 µM

====

Kindly supply the reported Kd values for the records listed here.
molecular target: HLA-B*57:01; test: IEDB peptide-MHC binding, purified MHC/competitive/radioactivity; filed as Kd, often an IC50 or EC50 that approximates it; bounds were set here for any values at or beyond the usual limits of such assays; details: source organism: Dengue virus 1 Brazil/97-11/1997

Reference set, count: 3
BIOSEQUENCE | TARGET_OF_ASSAY | MEASURE | OBSERVED
WSSFKKNGAI | HLA-B*57:01 | Kd | 1020 nM
AVFVDENQW | HLA-B*57:01 | Kd | 0.913 nM
GSSIGKMFEA | HLA-B*57:01 | Kd | 853 nM

Next:
Query Kd on HLA-B*57:01 for FTSVGKLVHQ 2390 nM
